target_or_system: MCH-2R (Homo sapiens, UniProt Q969V1)
Sequence (Q969V1 whole entry): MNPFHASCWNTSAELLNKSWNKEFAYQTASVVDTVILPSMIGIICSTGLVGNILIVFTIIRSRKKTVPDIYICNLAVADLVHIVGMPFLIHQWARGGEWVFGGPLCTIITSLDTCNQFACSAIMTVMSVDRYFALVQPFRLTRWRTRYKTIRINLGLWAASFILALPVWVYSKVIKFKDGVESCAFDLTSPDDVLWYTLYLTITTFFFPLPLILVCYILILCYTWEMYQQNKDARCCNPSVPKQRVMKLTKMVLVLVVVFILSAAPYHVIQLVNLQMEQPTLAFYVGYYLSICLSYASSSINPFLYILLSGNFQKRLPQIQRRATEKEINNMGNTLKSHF
assay_summary: Aequorin bioluminescence functional assay, 293AEQ17/MCH-2R cells
Assay type: cell-based
Parameters: expressed in transfected cells; concentration or dose not given beside the values
protocol_conditions: human MCH = 100
measured_parameter: MCH-2R Activation % (%)
Express it in %; write the number only.

Tell me the measured MCH-2R Activation % of CSCC[C@@H]1NC(=O)[C@@H](NC(=O)[C@H](CCCNC(=N)N)NC(C)=O)CSSC[C@@H](C(N)=O)NC(=O)[C@@H]2CCCN2C(=O)[C@H](CCCNC(=N)N)NC(=O)[C@H](Cc2ccc(O)cc2)NC(=O)[C@H](C(C)C)NC(=O)[C@H](CCCNC(=N)N)NC(=O)[C@H](CCCNC(N)=O)NC(=O)[C@H](CC(C)C)NC1=O [SEQ. ID. NO. 27] , please.
68

Field: next molecule
Tell me the measured MCH-2R Activation % of CSCC[C@@H]1NC(=O)[C@@H](NC(=O)[C@H](CCCNC(=N)N)NC(C)=O)CSSC[C@@H](C(N)=O)NC(=O)[C@@H]2CCCN2C(=O)[C@H](CCCNC(=N)N)NC(=O)[C@H](Cc2ccc(O)cc2)NC(=O)[C@H](C(C)C)NC(=O)[C@H](CCCNC(=N)N)NC(=O)[C@H](CCCCN)NC(=O)[C@H](CC(C)C)NC1=O [SEQ. ID. NO. 24] , please.
40
